target system: recombinant human IL-5 protein (human) (UniProt P05113)
assay name: SPR, human IL-5 immobilized on CM5 chip, chimeric antibody as analyte, 1:1 global fit
Collected koff values appear next to each entry.

147D7H2 mouse-human chimeric antibody (antibody, human IgG4, V domains shown) VH: EVQLQQSGAELVKPGASVKLSCTASGFNIKDYFIHWVKQRTEQGLEWIGRIDTEDGETKYAPKFQGKATITIDTSSNTAYLYFSSLTSEDTAMYYCARYGNYVAMDYWGQGTSVTVSS VL: QIVLTQSPALMSASPGEKVTMTCSASSSVSYMFWYQQKPSSSPKPWIYLTSKLASGVPARFSGSGSGTSYSLTISSVEAEDAATYYCQQWNSNPYTFGGGTKLEIK    < 1e-05 s⁻¹

koff reported for this binder 151G3B11 mouse-human chimeric antibody (antibody, human IgG4, V domains shown) VH: EVHLQQSGAELVKPGASVKLSCTASGFNIKDYYMHWVKQRTEQGLEWIGRIDPEDGETKYAPKFQGQATITADTSSNTANLQLSSLTSEDTAVYYCARYGNFPDYWGPGTTLTVSS VL: QIVLTQSPALMSASPGEKVTMTCSASSSVSYMYWYQQKPRSSPKPWIYLTSKLASGVPARFSGSGSGTSYSLTISSMEAEDAATYYCQQWNSNPYTFGGGTKLEIK : < 1e-05 s⁻¹

koff reported for this binder 69F2F3 mouse-human chimeric antibody (antibody, human IgG4, V domains shown) VH: QVQLKQSGPGLVQPSQSLSITCTVSGFSLSNYGVHWVRQSPGKGLEWLGVIWSGGSTDYNAAFKSRLSITKDNSKSQVVFRMNSLQTDDTATYYCARNKDFLDYWGQGTKFTVSS VL: DIVMTQSPSSLTVTAGEKVTMTCKSSQGLLNSGNQKNYLTWYQQKPGQPPKLLIYWASTRESGVPDRFTGSGSGTDFTLTISSVQAEDLAVYYCQNDYHFPLTFGAGTKLELK : < 1e-05 s⁻¹

koff reported for this binder 102A2E11B6 mouse-human chimeric antibody (antibody, human IgG4, V domains shown) VH: QVQLRQSGPGLVQPSQSLSITCTVSGFSLTSYGVHWVRQSPGKGLEWLGVIWSGGSTDYNAVFMSRLSISKDSSKSQVFFKMNSLQTDDTAIYYCARNRYVLDYWGQGTSVTVSS VL: DIVMTQSPSSLSVSAGERVTMRCKSSQSLLTSGDQKNHLAWYQQKPGQPPKLLIYGASTRESGVPDRFTGSGSGTDFTLTITSVQAEDLAVYYCQNDHSFPLTFGAGTKLELK : 2.73e-05 s⁻¹

koff reported for this binder 154F10G8 mouse-human chimeric antibody (antibody, human IgG4, V domains shown) VH: QVQLQQPGAELVKPGASVKLSCKASGYTFTSYWITWVKQRPGQGLEWIGDIYPGSGSTFYNEKFKSEATLTVDTSSSTAYMQLSSLTSEDSAVFYCSTETTLGYWGQGTTLTVSS VL: DVLMTQTPLSLPVSLGDQASISCRSSQSIVHNNGNTYLEWYLQKPGQSPKLLIYKVSNRFSGVPDRFSGSGSGTDFTLKISRVEAEDLGVYYCFQGSHVPFTFGSGTKLEIK : 5.24e-05 s⁻¹
